molecular target: T1, CD71 apical domain (UniProt P02786 189-383, limits assumed); experiment: solution ELISA
T1 construct: domain: Apical domain
T1 sequence (P02786 189-383 limits assumed): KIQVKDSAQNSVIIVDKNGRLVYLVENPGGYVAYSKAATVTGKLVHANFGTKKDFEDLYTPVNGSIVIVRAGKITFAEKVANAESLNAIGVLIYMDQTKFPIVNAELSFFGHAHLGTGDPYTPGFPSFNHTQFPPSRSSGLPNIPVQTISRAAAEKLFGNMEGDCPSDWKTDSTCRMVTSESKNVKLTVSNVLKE
MEASUREMENT KIND: Apical domain, RLU

Which Apical domain, RLU value belongs to SEQ ID NO 159 (designed binder, FN3 domain) MLPAPKNLVVSRVTEDSARLSWTAPDAAFDSFYIAYAEPRPDGEAIYLKVPGSERSYDLTGLKPGTEYSVLIHGVKGGLLSSPLVAHFTT ?
4.43e+06 RLU

Could you share which Apical domain, RLU value was measured for SEQ ID NO 133 (designed binder, FN3 domain) MLPAPKNLVVSRVTEDSARLSWTAPDAAFDSFYIAYAEPRPDGEAIYLYVPGSERSYDLTGLKPGTEYSVLIHGVKGGLLSSPLDAFFTT ?
4.74e+06 RLU

Fill blank: measured Apical domain, RLU of the binder SEQ ID NO 112 (designed binder, FN3 domain) MLPAPKNLVVSRVTEDSARLSWTAPDAAFDSFYIAYAEPRPDGEAILLLVPGSERSYDLTGLKPGTEYSVLIHGVKGGLLSSPLSAIFTT is ____.
7.7e+06 RLU

Can you share its Apical domain, RLU? I mean this binder: SEQ ID NO 147 (designed binder, FN3 domain) MLPAPKNLVVSRVTEDSARLSWTAPDAAFDSFYIAYAEPRPDGEAIVLEVPGSERSYDLTGLKPGTEYSVLIHGVKGGLLSSPLDAHFTT
6.89e+06 RLU
